Tested on: ACHN
RUN DESCRIPTION: NCI tumour cell line growth inhibition, 48 h
The source made the active and inactive calls. Rule as the data show it: active = GI50 up to about 1.1 µM and inactive = higher.
Classes to choose from: active, inactive

*Q* Test call, this compound: `CNC(=O)N(CCC#N)CCCN(C(=O)NC)c1ccccc1`
*A* inactive

###

I'd appreciate it if you could supply GI50 values for the items below.
System: MDA-MB-435
RUN DESCRIPTION: NCI tumour cell line growth inhibition, 48 h
The source made the active and inactive calls. Cut-off read from the data, not from the text of the source: active = GI50 up to about 1.1 µM and inactive = higher.

Below, 8 compounds whose answers are already recorded.
compound="COc1ccc(/C=C2\\CCC(CN(C)C)C2=O)cc1 (stereo unspecified)" measured_parameter=GI50 measured_value="1.88 µM (inactive)"
compound="Cc1cc(=O)oc2cc(O)ccc12 [HYMECROMONE]" measured_parameter=GI50 measured_value="> 100 µM (inactive)"
compound=CN1CN(c2ccccc2)C2(CCN(C(=O)OC(C)(C)C)CC2)C1=O measured_parameter=GI50 measured_value="> 100 µM (inactive)"
compound=CC1(C)CN=C(Nc2cccc(C(F)(F)F)c2)S1 measured_parameter=GI50 measured_value="> 100 µM (inactive)"
compound=N#C/C(N)=C(C#N)/N=C/N measured_parameter=GI50 measured_value="> 100 µM (inactive)"
compound="O=NN1C(c2ccccc2)CC(=NO)CC1c1ccccc1 (stereo unspecified)" measured_parameter=GI50 measured_value="> 100 µM (inactive)"
compound=CC(C)(C)OC(=O)N(CCCN)CCCCN(CCCN)C(=O)OC(C)(C)C measured_parameter=GI50 measured_value="> 100 µM (inactive)"
compound=CCOC(=O)/C(=C\c1ccc(N(C)C)cc1)S(=O)(=O)C(F)(F)C(F)(F)C(F)(F)C(F)(F)F measured_parameter=GI50 measured_value="> 100 µM (inactive)"

Could I get GI50 for every one of these entries?
1. Clc1ccc(OCc2nnc(CCCCCCCCc3nnc(COc4ccc(Cl)cc4)o3)o2)cc1
2. O=[N+]([O-])/C(C(Cl)=C(Cl)Cl)=C(/Cl)Sc1ccccc1

*A*
> 100 µM (inactive)
1.86 µM (inactive)

*Q* Give the value of GI50 reported for the following: O=C(CCC(NC(=O)OCc1ccccc1)C(=O)OCc1ccccc1)Nc1ccc(OCc2ccccc2)cc1 (stereo unspecified)
*A* 17 µM (inactive)

###

Test system: OVCAR-4
RUN DESCRIPTION: NCI tumour cell line growth inhibition, 48 h
Activity calls are given as the source filed them. Rule as the data show it: active = GI50 up to about 1.1 µM and inactive = higher.
MEASURED PARAMETER: GI50

Below, 3 molecules whose answers are already recorded.
molecule=CN(C)c1ccc(/C=N\N2C(=O)c3ccccc3C2=O)cc1 measured_value="> 100 µM (inactive)"
molecule=CC(=O)O[C@H]1CC[C@H]2[C@@H]3CCc4cc(O)c(I)cc4[C@H]3CC[C@]12C measured_value="13.6 µM (inactive)"
molecule=COc1cc2c(cc1OCCN1CCN(CCOc3cc4c(cc3OC)C(=O)N3CCC[C@H]3C=N4)CC1)N=C[C@@H]1CCCN1C2=O measured_value="> 100 µM (inactive)"

Could I get GI50 for every one of these entries?
1. COC(=O)/C(=N\O)C(C(=O)C=C(C)C)C(=O)C(=O)Nc1ccccc1C (centres undefined)
2. COc1cc(C2SCC(=O)N2c2ccc(NC(C)=O)cc2)cc(OC)c1OC (centres undefined)
3. C[N+](C)(C)c1ncnc2c1ncn2C1CCCCO1 (centres undefined)
4. COC1=C(OC)C(=O)C(C/C=C/c2c(Cl)nc3sccn23)=C(C)C1=O
5. O=C(N/C(=C/c1cccc([N+](=O)[O-])c1)c1nc2cc(Cl)ccc2[nH]1)c1ccccc1
6. Cc1[nH]c(O)nc1C(=O)c1ccc(-n2ccnc2)cc1

*A*
1: > 100 µM (inactive); 2: > 100 µM (inactive); 3: > 100 µM (inactive); 4: 0.398 µM (active); 5: 17.4 µM (inactive); 6: > 100 µM (inactive)

###

Tested on: EKVX
RUN DESCRIPTION: NCI tumour cell line growth inhibition, 48 h
The source made the active and inactive calls. Rule as the data show it: active = GI50 up to about 1.1 µM and inactive = higher.
I'd appreciate it if you could supply GI50 values for the items below.

Could I get GI50 for every one of these entries?
1. S=c1[nH]c(=S)c2cc(Sc3ccc4[nH]c(=S)[nH]c(=S)c4c3)ccc2[nH]1
2. CCC/C(Cl)=N\OC(=O)Nc1ccc(F)cc1
3. CC1=C(Cl)C[C@@H](/C(C)=C\Cl)O[C@@]1(O)C(Br)Br
4. CNC(=O)N(CCC#N)CCCN(C(=O)NC)c1ccccc1
5. O=C(NCCN1C(=O)CN=C(c2ccc(Cl)cc2)c2cc(Cl)ccc21)OCc1ccccc1

*A*
1: 42.2 µM (inactive); 2: 17.3 µM (inactive); 3: 26.5 µM (inactive); 4: > 100 µM (inactive); 5: 20.7 µM (inactive)

Could I get GI50 for every one of these entries?
1. CC(C)(C)OC(=O)N(CCCN)CCCCN(CCCN)C(=O)OC(C)(C)C
2. CC(C)CCCC(=O)CCCCCCC(=O)CCN(O)C(=O)C(N)CO (stereo unspecified)
3. O=C(c1ccccc1)c1ccc2cccc(OC3OC(CO)C(O)C(O)C3O)c2n1 (stereo unspecified)
4. O=C(/C=C/C1C(=O)NC(=O)NC1=O)CC(=O)C(=O)Nc1cc(Cl)c(Cl)cc1Cl
5. Oc1c(/N=N/c2ccccc2)c2ccccc2c2ccc3ccccc3c12
6. CCOC(=O)CC(C)C(C#N)(OP1(=O)OC(c2ccccc2)C(C)N1C)c1ccccc1 (stereo unspecified)
7. COC(=O)[C@H](Cc1ccccc1)NC(=O)N(CCC#N)CCN(C(=O)N[C@@H](Cc1ccccc1)C(=O)OC)c1ccccc1

*A*
1: > 100 µM (inactive); 2: 10.6 µM (inactive); 3: > 100 µM (inactive); 4: > 100 µM (inactive); 5: 50.4 µM (inactive); 6: 62.2 µM (inactive); 7: 29.5 µM (inactive)

Could I get GI50 for every one of these entries?
1. O=C1N/C(=N\C2CCCCC2)C2(CCN(CCCC3(c4ccc(F)cc4)OCCO3)CC2)N1c1ccccc1
2. Fc1ccc(F)c(/C=N/C23CC4CC(CC(C4)C2)C3)c1
3. C[Si](C)(C)CNC(=O)OCc1ccccc1
4. O=C(NC(=S)Nc1ccc2c(c1)Sc1ccccc1O2)c1ccccc1
5. COc1cc(NS(C)(=O)=O)ccc1N1Cc2c[nH]c3ccc4nccc1c4c23

*A*
["16.8 µM (inactive)", "> 10 µM (inactive)", "76.7 µM (inactive)", "36.1 µM (inactive)", "> 100 µM (inactive)"]

Could I get GI50 for every one of these entries?
1. C=CCNC1=C2C[C@@H](C)C[C@@H](OC)[C@H](OC(=O)CN(C)C)[C@H](C)/C=C(\C)[C@@H](OC(N)=O)[C@H](OC)/C=C\C=C(/C)C(=O)NC(=CC1=O)C2=O
2. Cc1cc2c(ccc3c(C)cc(=O)oc32)o1
3. CCCCCCN(CCCCCC)C1=CC(=O)C(=O)c2ccccc21
4. CCOC(=O)NNC1(SC)NC(=O)c2c(cc(Cl)oc2=O)O1 (stereo unspecified)
5. CSC(SC)=C(C#N)C(=O)Nc1ccc(C)cc1

*A*
1. 1.28 µM (inactive)
2. > 100 µM (inactive)
3. 14.6 µM (inactive)
4. 6.85 µM (inactive)
5. > 100 µM (inactive)

Could I get GI50 for every one of these entries?
1. CCOC(=O)c1csc(NC(=O)CCN2CCOCC2)n1
2. CCCCn1cnc2c(c(CC#N)nn2-c2ccccc2)c1=N
3. C/C=C/C(O)P1(=O)N(Cc2ccccc2)[C@@H]2CCCC[C@H]2N1Cc1ccccc1 (stereo partly specified)

*A*
1. 77.3 µM (inactive)
2. 48.8 µM (inactive)
3. > 25 µM (inactive)

Could I get GI50 for every one of these entries?
1. COC[C@@H]1Cc2cc(OC)c3c(c2[C@H](c2ccc(OC)c(OC)c2)[C@H]1COC)OCO3
2. COc1cc(C(CC(OC)OC)=C(C#N)C#N)cc(OC)c1OC
3. O=C(O)c1cc2c3ccccc3nc-2c[nH]1
4. COC(=O)C1(Cc2ccc3c(c2)CCC3)Cc2ccccc2C1O (stereo unspecified)
5. O=C(OCc1ccccc1)N1c2cc([N+](=O)[O-])ccc2C(=O)N2CCC[C@H]2C1O (stereo partly specified)
6. CC(=O)/C(=C\n1c(=S)[nH]c2ccc([N+](=O)[O-])cc21)C(=O)Nc1ccccc1C

*A*
> 100 µM (inactive)
34.9 µM (inactive)
> 100 µM (inactive)
22.8 µM (inactive)
> 100 µM (inactive)
> 100 µM (inactive)

Could I get GI50 for every one of these entries?
1. CCNC1=Nc2ccccc2-n2c(nn3nc4ccccc4c23)N1CC
2. c1ccc(N2N=C3N(c4ccccc4)C2N3c2ccccc2)cc1
3. Nc1nc2c(ncn2CC2CCC(CO)C2)c(=O)[nH]1 (stereo unspecified)
4. COC(=O)C1=C(O)C(C(=O)OC)[C@]2(O)[C@H](C(=O)OC)[C@H]1C[C@@H](c1ccccc1OC)[C@H]2C(=O)OC (stereo partly specified)
5. COc1cc(C2SCC(=O)N2c2ccc(NC(C)=O)cc2)cc(OC)c1OC (stereo unspecified)

*A*
["> 100 µM (inactive)", "> 100 µM (inactive)", "> 100 µM (inactive)", "8.07 µM (inactive)", "> 100 µM (inactive)"]

Could I get GI50 for every one of these entries?
1. C=C1CCC2[C@@H](CCC3[C@]2(C)CCC[C@]3(C)C(=O)OC)[C@@H]1CC=O (stereo partly specified)
2. CCOC(=O)/C(=N\OC)C(O)C(F)(F)F (stereo unspecified)

*A*
35.1 µM (inactive)
> 100 µM (inactive)
